# Test system: ZEAMX (Corn, Field)
# Experiment description: Preemergence herbicidal evaluation
# Type: in vivo, Zea mays
# Measurement context: rate 0.1250 kg/ha; rated 4-5 weeks after treatment
Provide the reported ZEAMX preemergence herbicidal rating of each item.

Problem: Fill in: ZEAMX preemergence herbicidal rating of CCC1SC(=Nc2cc(N3C(=O)C4=C(CCCC4)C3=O)c(F)cc2Cl)N(C)C1=O (stereo not shown) [Compound 6] is ___
Result: 0.0

Problem: Ok, now CN(C)N1C(=O)CSC1=Nc1cc(-n2c(=O)cc(C(F)(F)F)n(C)c2=O)c(F)cc1Cl [Compound 23]
Result: 5.0

Problem: Cool, now CCOC(=O)CN1C(=O)CO/C1=N/c1cc(-n2c(=O)cc(C(F)(F)F)n(C)c2=O)c(F)cc1Cl [Compound 22]
Result: 8.0

Problem: Repeat for the following compound: C=CCN1C(=O)CSC1=Nc1cc(N2C(=O)C3=C(CCCC3)C2=O)c(F)cc1Cl [Compound 2]
Result: 0.0

----------
# Tested on: CHEAL (Lambsquarters, Common)
# Experiment description: Postemergence herbicidal evaluation
# Assay type: in vivo, Chenopodium album
# Measurement context: postemergence, rate 0.0625 kg/ha
Observation type: Herbicidal rating CHEAL

Problem: Suppose we examine the compound Cn1c(C(F)(F)F)cc(=O)n(-c2cc(N=C3SCC(=O)N3Cc3ccncc3)c(Cl)cc2F)c1=O ; what Herbicidal rating CHEAL value has been reported?
Result: 9.0

Problem: Okay, and Cc1ccc(CN2C(=O)CSC2=Nc2cc(-n3c(=O)cc(C(F)(F)F)n(C)c3=O)c(F)cc2Cl)cc1Cl ?
Result: 4.0

Problem: // next record CN(C)c1ccc(CN2C(=O)CSC2=Nc2cc(-n3c(=O)cc(C(F)(F)F)n(C)c3=O)c(F)cc2Cl)cc1
Result: 9.0

Problem: Now consider COc1cc(CN2C(=O)CSC2=Nc2cc(-n3c(=O)cc(C(F)(F)F)n(C)c3=O)c(F)cc2Cl)cc(OC)c1OC and answer again.
Result: 3.0

Problem: Next record, please: Cn1c(C(F)(F)F)cc(=O)n(-c2cc(N=C3SCC(=O)N3C3CCCC3)c(Cl)cc2F)c1=O
Result: 4.0

Problem: Do the same for C=CCN1C(=O)C(CC(=O)NS(=O)(=O)CC)SC1=Nc1cc(-n2c(=O)cc(C(F)(F)F)n(C)c2=O)c(F)cc1Cl (stereo not drawn) please
Result: 4.0

Problem: Same again, this time with Cn1c(C(F)(F)F)cc(=O)n(-c2cc(N=C3SCC(=O)N3CC(=O)OCC3CCCCC3)c(Cl)cc2F)c1=O
Result: 9.0

Problem: Param item: CCOC(=O)CN1C(=O)C(OC)SC1=Nc1cc(-n2c(=O)cc(C(F)(F)F)n(C)c2=O)c(F)cc1Cl (stereo not drawn)
Result: 9.0

Problem: Do the same for CCOC(=O)CN1C(=O)C(COC)SC1=Nc1cc(-n2c(=O)cc(C(F)(F)F)n(C)c2=O)c(F)cc1Cl (stereo not drawn) please
Result: 9.0

----------
Can you tell me Herbicidal rating ORYSAT for the items I'm about to list?
# Tested on: ORYSAT (Rice, Tebonnet)
# Experiment description: Postemergence herbicidal evaluation
# Assay type: in vivo, Oryza sativa, (L.) Tebonnet
# Measurement context: postemergence, rate 0.0313 kg/ha

Problem: Fill blank: measured Herbicidal rating ORYSAT of the compound C=C1SC(=Nc2cc(-n3c(=O)cc(C(F)(F)F)n(C)c3=O)c(F)cc2Cl)N(CC(=O)OCC)C1=O is ____.
Result: 1.5

Problem: Cn1c(C(F)(F)F)cc(=O)n(-c2cc(N=C3SCC(=O)N3Cc3cc(Cl)cc(Cl)c3)c(Cl)cc2F)c1=O ?
Result: 2.5

Problem: And what about the compound COc1cc(CN2C(=O)CSC2=Nc2cc(-n3c(=O)cc(C(F)(F)F)n(C)c3=O)c(F)cc2Cl)cc(OC)c1OC ?
Result: 0.5

----------
Assignment: determine reported Preemergence herbicidal rating CASOB for the given compounds.
# Tested on: CASOB (Sicklepod)
# Experiment description: Preemergence herbicidal evaluation
# Assay type: in vivo, Cassia obtusifolia
# Measurement context: 0.0156 kg/ha, rated 4-5 weeks after treatment
Reply briefly: the number, and no unit.

Problem: Recorded Preemergence herbicidal rating CASOB for Cn1c(C(F)(F)F)cc(=O)n(-c2cc(N=C3SCC(=O)N3C3CCC3)c(Cl)cc2F)c1=O [Compound 168] , please?
Result: 0.0

Problem: Same read-out for CCOC(=O)CN1C(=O)C(CC(=O)O)SC1=Nc1cc(N2C(=O)CC(C(F)(F)F)CC2=O)c(F)cc1Cl (stereo not shown) [Compound 170] ?
Result: 0.0

Problem: Please answer likewise for CC(C)N1C(=O)CSC1=Nc1cc(-n2c(=O)cc(C(F)(F)F)n(C)c2=O)c(F)cc1Cl [Compound 164]
Result: 1.0

Problem: Then Cn1c(C(F)(F)F)cc(=O)n(-c2cc(N=C3SCC(=O)N3C3CCCC3)c(Cl)cc2F)c1=O [Compound 166] ?
Result: 0.0

----------
# Tested on: ECHCG (Barnyardgrass)
# Experiment description: Postemergence herbicidal evaluation
# Format: in vivo, Echinochloa crus-galli
# Measurement context: postemergence, rate 0.0630 kg/ha
# Protocol: In the tests, seedling plants are grown in jiffy flats for about two weeks. The test compounds are dispersed in 50/50 acetone/water mixtures containing 0.5% TWEEN®20, a polyoxyethylene sorbitan monolaurate surfactant of Atlas Chemical Industries, in sufficient quantities to provide the equivalent of about 0.0156 kg to 0.500 kg per hectare of active compound when applied to the plants through a spray nozzle operating at 40 psi for a predetermined time. […]
Observation type: ECHCG herbicidal rating
# respond with the number and nothing more

Problem: I am curious: what ECHCG herbicidal rating value has been reported for CCOC(=O)CN1C(=O)CO/C1=N/c1cc(-n2c(=O)cc(C(F)(F)F)n(C)c2=O)c(F)cc1Cl ?
Result: 1.0

Problem: Would you mind doing CN(C)N1C(=O)CSC1=Nc1cc(-n2c(=O)cc(C(F)(F)F)n(C)c2=O)c(F)cc1Cl as well?
Result: 2.0

Problem: Let us now turn to C[C@@H](C(=O)OC(C)(C)C)N1C(=O)CSC1=Nc1cc(-n2c(=O)cc(C(F)(F)F)n(C)c2=O)c(F)cc1Cl
Result: 1.0

Problem: Same question, CCOC(=O)CN1C(=O)C(CC(=O)Nc2ccccc2)SC1=Nc1cc(-n2c(=O)cc(C(F)(F)F)n(C)c2=O)c(F)cc1Cl (centres unmarked) this time
Result: 5.0

Problem: Ok, now C#CCOC(=O)CC1SC(=Nc2cc(-n3c(=O)cc(C(F)(F)F)n(C)c3=O)c(F)cc2Cl)N(CC=C)C1=O (centres unmarked)
Result: 7.0

----------
For each entry below, report its Herbicidal rating CYPIR value.
# Tested on: CYPIR (Rice Flatsedge)
# Experiment description: Preemergence weed control under flooded paddy conditions
# Assay type: in vivo, Cyperus iria
# Measurement context: 0.0625 kg/ha, rated 3-4 weeks after treatment
Lab note: write the figure by itself, no unit.

Problem: Dear colleague, I am looking for the recorded Herbicidal rating CYPIR of the following molecule: CCC1SC(=Nc2cc(N3C(=O)C4=C(CCCC4)C3=O)c(F)cc2Cl)N(C)C1=O (centres unmarked) [Compound 6]
Result: 2.0

Problem: Also, CCOC(=O)CN1CC(=O)N(CC(=O)OCC)C1=Nc1cc(-n2c(=O)cc(C(F)(F)F)n(C)c2=O)c(F)cc1Cl [Compound 34] please.
Result: 0.0

Problem: Subsequent entry: CCOC(=O)CN1C(=O)C2(CC2)SC1=Nc1cc(-n2c(=O)cc(C(F)(F)F)n(C)c2=O)c(F)cc1Cl [Compound 15]
Result: 2.0

Problem: What do you get for Cn1c(C(F)(F)F)cc(=O)n(-c2cc(N=C3SCC(=O)N3Cc3ccccc3)c(Cl)cc2F)c1=O [Compound 26] ?
Result: 4.0

Problem: Please answer likewise for CCOC(=O)CN1C(=O)C(CC(N)=O)S/C1=N/c1cc(-n2c(=O)cc(C(F)(F)F)n(C)c2=O)c(F)cc1Cl (centres unmarked) [Compound 56]
Result: 0.0

----------
For each entry below, report its Herbicidal rating CHEAL value.
# System: CHEAL (Lambsquarters, Common)
# Experiment description: Postemergence herbicidal evaluation
# Type: in vivo, Chenopodium album
# Measurement context: postemergence, rate 0.0313 kg/ha
Would you mind answering with just the numeric figure?

Problem: Herbicidal rating CHEAL lookup needed for Cn1c(C(F)(F)F)cc(=O)n(-c2cc(N=C3SCC(=O)N3Cc3cccnc3)c(Cl)cc2F)c1=O [Compound 132] , thanks.
Result: 4.0

Problem: Quick one: CCOC(=O)CN1C(=O)C(Br)SC1=Nc1cc(-n2c(=O)cc(C(F)(F)F)n(C)c2=O)c(F)cc1Cl (centres unmarked) [Compound 153]
Result: 1.0

Problem: Now this one: CCOC(=O)CN1C(=O)C(C(=O)OC(C)(C)C)SC1=Nc1cc(-n2c(=O)cc(C(F)(F)F)n(C)c2=O)c(F)cc1Cl (centres unmarked) [Compound 167]
Result: 7.0

Problem: What about CCOC(=O)CN1C(=O)C(COC)SC1=Nc1cc(-n2c(=O)cc(C(F)(F)F)n(C)c2=O)c(F)cc1Cl (centres unmarked) [Compound 156] ?
Result: 9.0

Problem: Follow-up item: Cn1c(C(F)(F)F)cc(=O)n(-c2cc(N=C3SCC(=O)N3Cc3ccc(C(F)(F)F)cc3)c(Cl)cc2F)c1=O [Compound 141]
Result: 5.0

Problem: How about this molecule: Cc1cc(C)cc(CN2C(=O)CSC2=Nc2cc(-n3c(=O)cc(C(F)(F)F)n(C)c3=O)c(F)cc2Cl)c1 [Compound 146]
Result: 9.0

Problem: For CC(C)COC(=O)CN1C(=O)CSC1=Nc1cc(-n2c(=O)cc(C(F)(F)F)n(C)c2=O)c(F)cc1Cl [Compound 121] then?
Result: 7.0

Problem: Here is the next molecule: CN(C)c1ccc(CN2C(=O)CSC2=Nc2cc(-n3c(=O)cc(C(F)(F)F)n(C)c3=O)c(F)cc2Cl)cc1 [Compound 138]
Result: 9.0
